- target entity: T1, cynomolgous macaque BCMA expressed on CHOK1 cells
- T1 construct: also called cyno BCMA on cells
- assay overview: flow cytometry, CHOK1 cells transiently expressing cynomolgus BCMA
readout name: binding result

>>> value_measured("552-LN2-E6 hIgG1 (antibody, V domains shown, Human-mouse chimeric antibody, human IgG1 format; also called [8]) VH: QIQLVQSGPELKKPGETVKISCMASGYTFTDYSVRWVKQAPGKGLEWMGWINTETGEPTYADDFKGRFAFSLETSASTAYLQINNLKNEDTATYFCAISYYYALDYWGHGTSVTVSS VL: DIVLTQSPASLTVSLGQRATISCRASKSVSTSVYSFLHWYQQKPGQPPKLLIYLASNLESGVPARFSGSGSGTDFTLNIHPVEEEDAATYYCQHSRELPRTFGGGTKLEIKR")
"binds"
>>> value_measured("539-SP7-F4 hIgG1 (antibody, V domains shown, Human-mouse chimeric antibody, human IgG1 format) VH: EVQLQQSGPELVKPGASMKISCKASGYSFTGYIMNWVKQSHGKNLEWIGLINPYNGDSIYNQKFKGKATLTVDKSSSTAYMELFSLTSEDSTVYYCAAGEEFAYWGQGTLVTVSA VL: DIQMTQTSSSLSASLGDRVTISCRASQDISIYLNWFQQKPDGTVKLLIYFTSRLHPGVPSRFSASGSGTDYSLTISHLEHEDIATYFCQQGNTLPRTFGGGTKVELKR")
"binds"
